biological target: H1047R PIK3CA enzyme (Homo sapiens, UniProt P42336, H1047R); assay: ADP-Glo Biochemical PIK3CA Kinase Assay
Sequence (P42336 whole entry H1047R): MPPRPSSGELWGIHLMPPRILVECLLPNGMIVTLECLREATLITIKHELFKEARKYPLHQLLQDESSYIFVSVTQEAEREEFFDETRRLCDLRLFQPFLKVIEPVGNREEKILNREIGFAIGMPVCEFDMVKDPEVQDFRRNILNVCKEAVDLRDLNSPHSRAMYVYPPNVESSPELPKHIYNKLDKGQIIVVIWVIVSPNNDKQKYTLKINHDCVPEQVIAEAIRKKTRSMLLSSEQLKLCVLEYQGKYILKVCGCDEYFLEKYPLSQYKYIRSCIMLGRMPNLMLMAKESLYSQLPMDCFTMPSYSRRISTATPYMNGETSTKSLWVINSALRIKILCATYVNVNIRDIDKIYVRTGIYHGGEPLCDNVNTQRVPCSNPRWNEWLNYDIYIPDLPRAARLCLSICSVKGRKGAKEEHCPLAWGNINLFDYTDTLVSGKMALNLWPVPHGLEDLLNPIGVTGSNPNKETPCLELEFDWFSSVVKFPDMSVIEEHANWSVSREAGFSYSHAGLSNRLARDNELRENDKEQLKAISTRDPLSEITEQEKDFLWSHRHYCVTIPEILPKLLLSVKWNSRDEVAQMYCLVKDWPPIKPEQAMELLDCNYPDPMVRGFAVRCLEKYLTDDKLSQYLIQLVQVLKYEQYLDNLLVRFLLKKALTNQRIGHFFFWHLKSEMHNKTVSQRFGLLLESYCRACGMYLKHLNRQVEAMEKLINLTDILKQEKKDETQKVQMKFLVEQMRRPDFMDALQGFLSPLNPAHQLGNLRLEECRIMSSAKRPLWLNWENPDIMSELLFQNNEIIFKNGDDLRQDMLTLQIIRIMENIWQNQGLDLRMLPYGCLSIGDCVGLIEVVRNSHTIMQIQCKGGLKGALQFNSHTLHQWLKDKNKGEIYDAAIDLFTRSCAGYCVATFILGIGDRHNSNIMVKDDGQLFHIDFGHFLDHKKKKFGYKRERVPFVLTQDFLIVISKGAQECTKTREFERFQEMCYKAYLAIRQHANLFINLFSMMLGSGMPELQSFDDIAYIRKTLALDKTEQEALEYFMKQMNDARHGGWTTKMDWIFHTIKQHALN
Sequence (P27986 whole entry partner): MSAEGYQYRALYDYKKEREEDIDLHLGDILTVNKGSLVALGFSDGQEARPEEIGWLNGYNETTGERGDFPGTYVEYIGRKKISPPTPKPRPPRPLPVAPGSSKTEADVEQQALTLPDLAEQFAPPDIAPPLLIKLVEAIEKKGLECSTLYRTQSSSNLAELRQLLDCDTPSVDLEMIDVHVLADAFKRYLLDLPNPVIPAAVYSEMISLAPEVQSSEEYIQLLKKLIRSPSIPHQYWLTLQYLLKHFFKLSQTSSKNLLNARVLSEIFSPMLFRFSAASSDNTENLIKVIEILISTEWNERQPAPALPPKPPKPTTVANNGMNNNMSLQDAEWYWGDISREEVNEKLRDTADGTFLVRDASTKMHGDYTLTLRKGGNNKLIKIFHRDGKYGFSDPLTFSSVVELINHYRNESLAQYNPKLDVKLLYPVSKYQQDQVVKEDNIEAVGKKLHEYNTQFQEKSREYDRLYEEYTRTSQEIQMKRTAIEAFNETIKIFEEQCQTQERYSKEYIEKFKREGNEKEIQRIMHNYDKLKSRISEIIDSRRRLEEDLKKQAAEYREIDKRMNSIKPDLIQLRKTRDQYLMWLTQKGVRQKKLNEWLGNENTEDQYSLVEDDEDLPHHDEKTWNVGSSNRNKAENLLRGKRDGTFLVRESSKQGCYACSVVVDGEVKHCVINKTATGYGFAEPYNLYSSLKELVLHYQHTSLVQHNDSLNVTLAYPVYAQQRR
We begin with a simple list: items and their reported IC50.

>  <molecule>
CNC(=O)c1cnc(Nc2ccccc2C)c(NC(=O)c2cc(F)cc3cccnc23)c1 [I-319]

>  <IC50>
10 to 100 µM

$$$$
>  <molecule>
Cc1ccccc1Nc1ncc(C(=O)NCC2CC(F)(F)C2)cc1NC(=O)c1cc(F)cc(C(F)(F)F)c1 [I-211]

>  <IC50>
0.1 to 0.5 µM

$$$$
>  <molecule>
Cc1ccccc1Nc1cc(=O)[nH]cc1NC(=O)c1csc2ccccc12 [I-308]

>  <IC50>
1 to 10 µM

$$$$
>  <molecule>
Cc1ccccc1Nc1ncc(C(=O)NCc2nccs2)cc1NC(=O)c1csc2ccccc12 [I-138]

>  <IC50>
≤ 0.1 µM

$$$$
>  <molecule>
CNC(=O)c1cnc(NC(CO)CCO)c(NC(=O)c2cc(F)cc(C(F)(F)F)c2)c1 (centres unmarked) [I-814]

>  <IC50>
10 to 100 µM

$$$$
>  <molecule>
O=C(Nc1cc(-c2ccc3ncnn3c2)cnc1Nc1cc(CO)ccc1Cl)c1cc(F)cc(C(F)(F)F)c1 [I-811]

>  <IC50>
10 to 100 µM

$$$$
>  <molecule>
Cc1ccccc1Nc1ncc(C(=O)NC2CC(F)(F)C2)cc1NC(=O)c1nsc2ccccc12 [I-332]

>  <IC50>
0.1 to 0.5 µM

$$$$
>  <molecule>
CNC(=O)c1cnc(Nc2ccccc2C)c(NC(=O)Cc2ccccc2Cl)c1 [I-140]

>  <IC50>
10 to 100 µM

$$$$

----------
We begin with a simple list: items and their reported pIC50.
biological target: H1047R PIK3CA enzyme (Homo sapiens, UniProt P42336, H1047R); assay: ADP-Glo Biochemical PIK3CA Kinase Assay
pIC50: −log10 of the molar value.

>  <compound>
Cc1ccccc1Nc1ncc(-c2cnn(C)c2)cc1NC(=O)c1csc2ccc(F)cc12 [I-146]

>  <study-target>
H1047R PIK3CA enzyme (Homo sapiens, UniProt P42336, H1047R)

>  <pIC50>
6.30 to 7.00

$$$$
>  <compound>
Cc1ccccc1Nc1ncc(-c2ccc(CNC(=O)OC(C)(C)C)cc2)cc1NC(=O)c1cc(F)cc(C(F)(F)F)c1 [I-76]

>  <study-target>
H1047R PIK3CA enzyme (Homo sapiens, UniProt P42336, H1047R)

>  <pIC50>
5.00 to 6.00

$$$$
>  <compound>
CNC(=O)c1cnc(Nc2cccc(Cl)c2C)c(NC(=O)c2cc(F)cc(C(F)(F)F)c2)c1 [I-290]

>  <study-target>
H1047R PIK3CA enzyme (Homo sapiens, UniProt P42336, H1047R)

>  <pIC50>
5.00 to 6.00

$$$$
>  <compound>
CNC(=O)c1cnc(N2CC3CCCN3CC2C)c(NC(=O)c2cc(F)cc(C(F)(F)F)c2)c1 (stereo not shown) [I-202]

>  <study-target>
H1047R PIK3CA enzyme (Homo sapiens, UniProt P42336, H1047R)

>  <pIC50>
4.00 to 5.00

$$$$
>  <compound>
Cc1ccccc1Nc1ncc(-c2cnn(C)c2)cc1NC(=O)c1cccc(N(C)C)c1 [I-120]

>  <study-target>
H1047R PIK3CA enzyme (Homo sapiens, UniProt P42336, H1047R)

>  <pIC50>
4.00 to 5.00

$$$$
>  <compound>
CNC(=O)c1cnc(Nc2ccccc2C)c(NC(=O)c2cc(C)n(C(F)F)n2)c1 [I-369]

>  <study-target>
H1047R PIK3CA enzyme (Homo sapiens, UniProt P42336, H1047R)

>  <pIC50>
4.00 to 5.00

$$$$
>  <compound>
CNC(=O)c1cnc(Nc2ccccc2C)c(NC(=O)c2cccnc2C(F)(F)F)c1 [I-371]

>  <study-target>
H1047R PIK3CA enzyme (Homo sapiens, UniProt P42336, H1047R)

>  <pIC50>
4.00 to 5.00

$$$$
>  <compound>
O=C(NC1CS(=O)(=O)C1)c1cnc(N2CCOc3ccccc32)c(NC(=O)c2csc3ccccc23)c1 [I-245]

>  <study-target>
H1047R PIK3CA enzyme (Homo sapiens, UniProt P42336, H1047R)

>  <pIC50>
6.30 to 7.00

$$$$
>  <compound>
Cc1ccccc1Nc1ncc(C(=O)N[C@H]2C[C@@H](O)C2)cc1NC(=O)c1cc(F)cc(C(F)(F)F)c1 [I-395]

>  <study-target>
H1047R PIK3CA enzyme (Homo sapiens, UniProt P42336, H1047R)

>  <pIC50>
6.30 to 7.00

$$$$
>  <compound>
CNC(=O)c1cnc(Nc2ccccc2C)c(NC(=O)c2cc(Cl)cc(Cl)c2)c1 [I-6]

>  <study-target>
H1047R PIK3CA enzyme (Homo sapiens, UniProt P42336, H1047R)

>  <pIC50>
6.00 to 6.30

$$$$
>  <compound>
CNC(=O)c1cnc(Nc2ccccc2C)c(NC(=O)c2cc(C(F)(F)F)cc(C(F)(F)F)c2)c1 [I-177]

>  <study-target>
H1047R PIK3CA enzyme (Homo sapiens, UniProt P42336, H1047R)

>  <pIC50>
4.00 to 5.00

$$$$
>  <compound>
Cc1ccccc1Nc1ncc(C(N)=O)cc1NC(=O)c1cc(F)cc(C(F)(F)F)c1 [I-28]

>  <study-target>
H1047R PIK3CA enzyme (Homo sapiens, UniProt P42336, H1047R)

>  <pIC50>
6.00 to 6.30

$$$$
>  <compound>
CNC(=O)c1cnc(Nc2ccccc2C)c(NC(=O)c2cc(Cl)ccc2OC)c1 [I-12]

>  <study-target>
H1047R PIK3CA enzyme (Homo sapiens, UniProt P42336, H1047R)

>  <pIC50>
4.00 to 5.00

$$$$
>  <compound>
Cc1ccccc1Nc1ncc(C(=O)Nc2ccncn2)cc1NC(=O)c1cc(F)cc(C(F)(F)F)c1 [I-262]

>  <study-target>
H1047R PIK3CA enzyme (Homo sapiens, UniProt P42336, H1047R)

>  <pIC50>
6.00 to 6.30

$$$$
>  <compound>
CNC(=O)c1cnc(Nc2ccccc2C)c(NC(=O)c2ccc(OC(F)(F)F)c(F)c2)c1 [I-391]

>  <study-target>
H1047R PIK3CA enzyme (Homo sapiens, UniProt P42336, H1047R)

>  <pIC50>
4.00 to 5.00

$$$$
>  <compound>
CNC(=O)c1cnc(Nc2ccccc2C)c(NC(=O)c2cc(F)cc(C3CC3)c2)c1 [I-188]

>  <study-target>
H1047R PIK3CA enzyme (Homo sapiens, UniProt P42336, H1047R)

>  <pIC50>
5.00 to 6.00

$$$$
>  <compound>
CNC(=O)c1cnc(Nc2ccccc2C)c(NC(=O)c2cc(F)cc(OC(F)F)c2)c1 [I-364]

>  <study-target>
H1047R PIK3CA enzyme (Homo sapiens, UniProt P42336, H1047R)

>  <pIC50>
5.00 to 6.00

$$$$
>  <compound>
CNC(=O)c1cnc(Nc2cn(C)nc2C)c(NC(=O)c2cc(F)cc(C(F)(F)F)c2)c1 [I-289]

>  <study-target>
H1047R PIK3CA enzyme (Homo sapiens, UniProt P42336, H1047R)

>  <pIC50>
4.00 to 5.00

$$$$
>  <compound>
Cc1ccccc1Nc1ncc(C(=O)NC2CCC(O)C2)cc1NC(=O)c1cc(F)cc(C(F)(F)F)c1 (stereo not shown) [I-275]

>  <study-target>
H1047R PIK3CA enzyme (Homo sapiens, UniProt P42336, H1047R)

>  <pIC50>
6.30 to 7.00

$$$$
>  <compound>
CNC(=O)c1cnc(Nc2ccccc2C)c(NC(=O)c2cnccc2C(F)(F)F)c1 [I-365]

>  <study-target>
H1047R PIK3CA enzyme (Homo sapiens, UniProt P42336, H1047R)

>  <pIC50>
4.00 to 5.00

$$$$
>  <compound>
CNC(=O)c1cnc(Nc2ccccc2C)c(NC(=O)c2cn3c(Cl)cccc3n2)c1 [I-377]

>  <study-target>
H1047R PIK3CA enzyme (Homo sapiens, UniProt P42336, H1047R)

>  <pIC50>
4.00 to 5.00

$$$$
>  <compound>
CNC(=O)c1cnc(Nc2ccccc2C)c(NC(=O)c2csc3c2CCC3)c1 [I-341]

>  <study-target>
H1047R PIK3CA enzyme (Homo sapiens, UniProt P42336, H1047R)

>  <pIC50>
5.00 to 6.00

$$$$
>  <compound>
Cc1ccc(Nc2ncc(C(=O)NCc3ccnn3C)cc2NC(=O)c2csc3ccccc23)cc1 [I-261]

>  <study-target>
H1047R PIK3CA enzyme (Homo sapiens, UniProt P42336, H1047R)

>  <pIC50>
5.00 to 6.00

$$$$
>  <compound>
CNC(=O)c1cnc(Nc2ccccc2C)c(NC(=O)Cc2ccccc2S(C)(=O)=O)c1 [I-306]

>  <study-target>
H1047R PIK3CA enzyme (Homo sapiens, UniProt P42336, H1047R)

>  <pIC50>
4.00 to 5.00

$$$$
>  <compound>
O=C(Nc1cccnc1NC1CCNCC1)c1csc2ccccc12 [I-152]

>  <study-target>
H1047R PIK3CA enzyme (Homo sapiens, UniProt P42336, H1047R)

>  <pIC50>
4.00 to 5.00

$$$$
>  <compound>
C[C@H](NC(=O)c1cnc(N2CCOc3ccccc32)c(NC(=O)c2csc3ccccc23)c1)c1ccncc1 (stereo in doubt) [I-315]

>  <study-target>
H1047R PIK3CA enzyme (Homo sapiens, UniProt P42336, H1047R)

>  <pIC50>
6.00 to 6.30

$$$$
>  <compound>
Cc1ccccc1Nc1ncc(N2CC(N)C2)cc1NC(=O)c1cc(F)cc(C(F)(F)F)c1 [I-73]

>  <study-target>
H1047R PIK3CA enzyme (Homo sapiens, UniProt P42336, H1047R)

>  <pIC50>
5.00 to 6.00

$$$$
>  <compound>
Cc1ccccc1Nc1ncc(-c2cnn(C)c2)cc1NC(=O)c1cc(F)cc(Br)c1 [I-96]

>  <study-target>
H1047R PIK3CA enzyme (Homo sapiens, UniProt P42336, H1047R)

>  <pIC50>
6.00 to 6.30

$$$$
>  <compound>
Cc1ccccc1Nc1ncc(-c2cnn(C)c2)cc1NC(=O)c1ccccc1C(F)(F)F [I-107]

>  <study-target>
H1047R PIK3CA enzyme (Homo sapiens, UniProt P42336, H1047R)

>  <pIC50>
4.00 to 5.00

$$$$
>  <compound>
Cc1ccccc1Nc1nc2ccccc2cc1NC(=O)N1CC(O)c2ccccc21 (stereo not shown) [I-828]

>  <study-target>
H1047R PIK3CA enzyme (Homo sapiens, UniProt P42336, H1047R)

>  <pIC50>
6.00 to 6.30

$$$$
>  <compound>
Cc1ccccc1N[C@H]1CCN(C(=O)OC(C)(C)C)C[C@@H]1C(=O)Nc1cc(F)cc(C(F)(F)F)c1 (racemic) [I-156]

>  <study-target>
H1047R PIK3CA enzyme (Homo sapiens, UniProt P42336, H1047R)

>  <pIC50>
4.00 to 5.00

$$$$
>  <compound>
Cc1ccccc1Nc1ncc(C(=O)NCC(F)(F)F)cc1NC(=O)c1csc2ccccc12 [I-196]

>  <study-target>
H1047R PIK3CA enzyme (Homo sapiens, UniProt P42336, H1047R)

>  <pIC50>
6.30 to 7.00

$$$$
>  <compound>
Cc1ccccc1Nc1ncccc1NC(=O)c1cc(F)cc(C(F)(F)F)c1 [I-11]

>  <study-target>
H1047R PIK3CA enzyme (Homo sapiens, UniProt P42336, H1047R)

>  <pIC50>
5.00 to 6.00

$$$$
>  <compound>
CNC(=O)c1cnc(N2C(=O)NCc3ccccc32)c(NC(=O)c2csc3ccccc23)c1 [I-215]

>  <study-target>
H1047R PIK3CA enzyme (Homo sapiens, UniProt P42336, H1047R)

>  <pIC50>
5.00 to 6.00

$$$$
